Catalogue of activity change, negative = inhibition values
Assay: qHTS Assay for Lipid Storage Modulators (AID 1519); note: % is set by controls: 0 for no effect and ±100 for the full control effect
Settings: Drosophila S3 cells, BODIPY lipid droplet/cell ratio, laser cytometry; at 25.7 µM (top of the series); cells loaded with oleic acid
Inconclusive results are not listed.
# output: bare number, implied unit %

Example entries and their recorded answers appear below.
C[C@@H]1CCc2cc(F)cc3c(=O)c(C(=O)O)cn1c23; -0.0799
NCC[C@H](O)C(=O)N[C@H]1C[C@@H](N)[C@@H](O[C@H]2O[C@@H](CN)[C@@H](O)[C@@H](O)[C@@H]2O)[C@@H](O)[C@@H]1O[C@H]1O[C@@H](CO)[C@@H](O)[C@@H](N)[C@@H]1O; -0.738
CC(=O)[C@@]1(O)CC[C@H]2[C@H]3C[C@@H](C)C4=CC(=O)C=C[C@]4(C)[C@@]3(F)[C@@H](O)C[C@]21C; -6.74

Please turn your attention to the following entry.
Query CC(=C(CCOP(=O)(O)O)SC(=O)c1ccccc1)N(C=O)Cc1cnc(C)nc1N yields activity change, negative = inhibition of 0.981
